B1: Pistol ribozyme (parent)
chain: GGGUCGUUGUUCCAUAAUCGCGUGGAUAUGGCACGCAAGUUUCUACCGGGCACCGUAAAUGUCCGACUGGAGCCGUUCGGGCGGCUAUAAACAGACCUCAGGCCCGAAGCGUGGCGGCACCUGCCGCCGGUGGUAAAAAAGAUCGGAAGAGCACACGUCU

variants of: B1; assay: aptazyme ON/OFF ratio, guanine; higher = stronger switching; co-transcriptional cleavage with and without guanine
Parameter: aptazyme ON/OFF ratio

G9A U10C U11A C13U | 1.3
U7G G9A U10G U11A C12A C13A | 1.06
U7C U8C G9U U10A U11C C12U C13A | 1.16
U7G U8A U10C U11C | 1.11
U7G G9C U10G U11C C12U C13G | 1.26
U7G U8A G9C U10C U11G C12U C13A | 1.05
U7G U8C G9A U10G U11C C12U C13A | 1.12
U8A G9A U10A U11A C12U | 1.13

Provide each entry's aptazyme ON/OFF ratio from the list below.
1. U7G G9A U10A U11C C13U
2. U7A U8C G9U U10C U11G C12U C13U
3. U7A U8G U10G C12U C13U
4. U7C U8A G9U C12A C13G

Result block:
1. 1.06
2. 1.18
3. 1.26
4. 1.18

Provide each entry's aptazyme ON/OFF ratio from the list below.
1. U7G G9U U10C U11C C12A C13G
2. U7G G9A U10A C12G C13G
3. U8A G9A U10A C12G C13G
4. U7C U8C G9A U10G U11C C12U
5. U7C U8G U10C U11G C12A
6. U7A G9U U10A C12A C13G
7. U7A U10C U11C C12U

Result block:
1.4
1.12
1.28
1.43
2.9
1.07
1.04
